- targetOfAssay: PI 3-kinase beta (Homo sapiens)
- Sequence (P42338 whole entry): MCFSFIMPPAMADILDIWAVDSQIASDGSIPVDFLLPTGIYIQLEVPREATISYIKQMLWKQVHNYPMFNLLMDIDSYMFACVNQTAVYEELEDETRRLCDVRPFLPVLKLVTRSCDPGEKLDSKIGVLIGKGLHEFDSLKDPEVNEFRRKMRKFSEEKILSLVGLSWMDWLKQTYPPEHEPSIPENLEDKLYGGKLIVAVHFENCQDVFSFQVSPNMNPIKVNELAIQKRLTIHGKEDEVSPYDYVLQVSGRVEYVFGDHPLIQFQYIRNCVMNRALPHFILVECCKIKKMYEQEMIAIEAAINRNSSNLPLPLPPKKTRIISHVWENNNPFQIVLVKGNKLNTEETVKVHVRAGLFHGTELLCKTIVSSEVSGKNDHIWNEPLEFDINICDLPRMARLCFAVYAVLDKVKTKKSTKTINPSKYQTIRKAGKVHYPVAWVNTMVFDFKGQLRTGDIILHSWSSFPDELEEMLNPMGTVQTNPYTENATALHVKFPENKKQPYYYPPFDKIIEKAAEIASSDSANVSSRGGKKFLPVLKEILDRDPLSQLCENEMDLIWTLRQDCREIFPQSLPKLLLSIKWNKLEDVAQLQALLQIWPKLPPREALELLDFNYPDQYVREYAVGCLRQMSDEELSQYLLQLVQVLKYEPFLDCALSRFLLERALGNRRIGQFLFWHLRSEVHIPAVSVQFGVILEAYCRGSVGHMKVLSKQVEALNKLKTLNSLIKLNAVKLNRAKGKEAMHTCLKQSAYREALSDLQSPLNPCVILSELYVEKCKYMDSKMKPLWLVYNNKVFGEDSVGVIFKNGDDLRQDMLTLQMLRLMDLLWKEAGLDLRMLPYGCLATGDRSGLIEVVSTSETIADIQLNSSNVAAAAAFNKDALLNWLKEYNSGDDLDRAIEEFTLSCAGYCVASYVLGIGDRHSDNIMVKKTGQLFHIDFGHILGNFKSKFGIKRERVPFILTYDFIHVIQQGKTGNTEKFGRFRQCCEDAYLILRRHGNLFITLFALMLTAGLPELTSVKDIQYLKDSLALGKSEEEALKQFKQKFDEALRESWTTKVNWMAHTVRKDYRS
- Sequence (P27986 461-568 partner): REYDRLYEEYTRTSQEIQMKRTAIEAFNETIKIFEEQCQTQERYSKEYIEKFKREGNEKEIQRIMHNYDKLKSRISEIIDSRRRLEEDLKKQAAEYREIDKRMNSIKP
- assayOverview: Kinase Glo Luminescent Kinase Assay (Kglo), assay B
- Format: biochemical
- conditionContext: read-out: Assay B PI3Kβ IC50
observationType: IC50 (nM)
Give just the number in nM; leave the unit off.

Field: example entries. Status: answers known.
Cc1cc(F)c(S(=O)(=O)NCCCO)cc1-c1cnc(N)c(-c2cnn(C)c2)n1 [Example 114]: 3700
Cc1ccc(S(=O)(=O)NC2(CO)CC2)cc1-c1cnc(N)c(-n2cncn2)n1 [Example 98]: 1400
Cc1cc(C)c(S(=O)(=O)NCC(C)(C)O)cc1-c1cnc(N)c(-n2cncn2)n1 [Example 121]: 1200
Cc1ccc(S(=O)(=O)NCCC(C)(C)O)cc1-c1cnc(N)c(-n2cccn2)n1 [Example 62]: 1010
Cc1ccc(S(=O)(=O)NC2CCC(F)(F)CC2)cc1-c1cnc(N)c(-c2cnn(C)c2)n1 [Example 54]: 770

Tell us which IC50 value is on record for Cc1ccc(S(=O)(=O)NCC(C)(C)O)cc1-c1cnc(N)c(-c2cn(C)nc2C)n1 [Example 13]
1090

Tell us which IC50 value is on record for Cc1ccc(S(=O)(=O)N2CC(CO)C2)cc1-c1cnc(N)c(-n2cncn2)n1 [Example 127.45]
6200

Tell us which IC50 value is on record for Cc1ccc(S(=O)(=O)NC[C@@H](C)O)cc1-c1cnc(N)c(-n2cncn2)n1 [Example 127.13]
530

Tell us which IC50 value is on record for Cc1ncc(-c2nc(-c3cc(S(=O)(=O)NCCCO)c(F)cc3C)cnc2N)s1 [Example 113]
440

Tell us which IC50 value is on record for Cc1ccc(S(=O)(=O)NC2CC3(CC(O)C3)C2)cc1-c1cnc(N)c(-n2cncn2)n1 (stereo not shown) [Example 67]
860

Tell us which IC50 value is on record for Cc1ncc(-c2nc(-c3cc(S(=O)(=O)NC[C@H]4C[C@@H](O)C4)ccc3C)cnc2N)s1 [Example 20a]
1060

Tell us which IC50 value is on record for Cc1noc(-c2nc(-c3cc(S(=O)(=O)NCC(C)(C)CO)ccc3C)cnc2N)n1 [Example 92]
8200
